Experiment: Toxicity liver stage against HepG2, at 10uM
Assay type: cell-based
Set-up: test concentration 10 uM, cell line HepG2-A16-CD81EGFP
Conditions: human, HepG2-A16-CD81EGFP cells; read-out: INHIBITION
measurementKind: cytotoxicity at 10 µM (%)

| compound | unitOfMeasure | readoutValue |
| --- | --- | --- |
| O=C1CCCC2=C1C(c1ccco1)C1C(=O)NN=C1N2 (stereo unspecified) | % | 2.1 |
| Cn1cncc1CN1CCC2(CC1)CCN2c1ncccn1 | % | 9.61 |
| CN(CCCc1nccn1C)C(=O)C1CCN(C(=O)C2CCC2)CC1 | % | -7.12 |
| Cc1cc(CN(C)c2nc(-c3ccccn3)nc3c2CCNCC3)n[nH]1 | % | -5.48 |
| CCC(C)NC(=O)CN1CCOCC1 (stereo unspecified) | % | -5.74 |
| Cc1ccsc1CN1CCn2c(COc3cccnc3)cnc2C1C (stereo unspecified) | % | -99.4 |

* * *

Assay: Toxicity liver stage against HepG2, at 10uM
Assay type: cell-based
Set-up: test concentration 10 uM, cell line HepG2-A16-CD81EGFP
Details: human, HepG2-A16-CD81EGFP cells; read-out: INHIBITION
measurementKind: cytotoxicity at 10 µM

| compound | readoutValue |
| --- | --- |
| O=C(c1cnc(OCC(F)(F)F)c(Cl)c1)N1CCc2ccc(O)cc2C1 | -5.38% |
| Cc1cccnc1Nc1nccc(C2CN(CC(N)=O)C2)n1 | -34.3% |
| COc1cc(C)sc1C(=O)NCCC(=O)N(C)c1ccccc1 | -1.41% |
| CN(C)CCN1C[C@@H]2CN(c3ccccc3)C[C@@H]2C1=O | -94% |
| Cc1cc2ccccc2n1CCC(=O)N1CCCC2(CC1)CNC(=O)O2 (stereo unspecified) | 3.5% |
| CC(C)(CO)NCc1ccc(OCc2ccc3c(c2)OCCO3)cc1 | 4.12% |
| CN(Cc1ccco1)C(=O)C1CSCN1C(=O)c1cccnc1 (stereo unspecified) | -5.28% |
| Cc1c(C(=O)NC2CCCOc3cc(Cl)ccc32)cnn1C (stereo unspecified) | -0.572% |
| O=C(NCc1ccco1)[C@H]1C[C@H]2OCC[C@H]2N(C(=O)c2ccco2)C1 | 2.79% |
| Cc1csc(C(C)(C)NCC(=O)N(C)Cc2ccc(C)o2)n1 | -1.12% |
| CC(C)Cc1cc(NC(=O)c2ccc3[nH]nnc3c2)n(C)n1 | -7% |

* * *

Assay: Toxicity liver stage against HepG2, at 10uM
Type: cell-based
Design: test concentration 10 uM, cell line HepG2-A16-CD81EGFP
Conditions: human, HepG2-A16-CD81EGFP cells; read-out: INHIBITION
Reported cytotoxicity at 10 µM values for the following compounds.

| compound | unitOfMeasure | cytotoxicity at 10 µM |
| --- | --- | --- |
| Cc1cc(F)ccc1N1CCCC(NC2CCSCC2)C1=O (stereo not drawn) | % | 1.07 |
| Cc1noc(C)c1CC(=O)N1CCN(Cc2cscn2)CC1 | % | -8.72 |
| Cc1ccc(NC(=O)c2nc(N3CCCCC3)ncc2Cl)cc1I | % | -0.906 |
| C[C@H]1C[C@@H]2CCN(C(=O)c3cnccn3)C[C@H]2O1 | % | 2.96 |
| Cn1cc(N2CCN(c3ccc(C#N)cc3F)CC2=O)cn1 | % | -2.14 |
| CC[C@@H]1N(Cc2ccsc2)CCC[C@]12CCC(=O)N2CCOC | % | 7.36 |
| COc1cccc(CNC(Cc2cccs2)c2nc(C)c(C)s2)c1OC (stereo not drawn) | % | -12.9 |
| CCCn1ncnc1C(C)NC(=O)C1CCN(C(=O)C2CC2)CC1 (stereo not drawn) | % | -147 |
| Cc1ccc(OCc2occc2C(=O)N2CCCCC(N)C2)cc1 (stereo not drawn) | % | -8.84 |
| c1ccc(-c2nnc(CN3CCCC3Cn3cncn3)o2)cc1 (stereo not drawn) | % | -7.42 |
| Cc1ccc(C(C)N(C)C(=O)c2ccc(=O)n(C)c2)s1 (stereo not drawn) | % | -4.27 |
| CN1CCc2nc(C3CCCCN3Cc3ccccc3Cl)ncc2C1 (stereo not drawn) | % | -27.7 |
| CN(C)CCN1CCCC12CCN(C(=O)c1ccoc1)CC2 | % | -1.83 |
| CC(C)(CNC(=O)C1(c2ccccc2)CCOCC1)C(=O)O | % | 1.25 |
| Cn1cnnc1CCC(=O)N1CCCC(OCc2cccnc2)C1 (stereo not drawn) | % | 2.66 |
| Cc1c[nH]c(CN2CCOC(c3ccc(Cl)cc3)C2)c(C)c1=O (stereo not drawn) | % | 13.4 |
| CC(C)c1nn(C)c(N(C)C)c1CNC(C)c1ccccc1F (stereo not drawn) | % | -2.97 |
| CN1CCC(N2CCOC[C@H]2c2nc(C(C)(C)C)c[nH]2)CC1 | % | 2.73 |
| O=C(N[C@H]1CN[C@H]2CCCO[C@H]21)c1ccno1 | % | -6.92 |
| Cn1cnc(S(=O)(=O)NCCCN2CCOCC2)c1Cl | % | -11.2 |
| CC(OCC1CC1)C(=O)NCc1cccc(CN2CCN(C)CC2)c1 (stereo not drawn) | % | 0.193 |
| O=C(NCCCN1CCCCCC1=O)c1n[nH]c(=O)c2ccccc12 | % | -12.3 |
| Cc1ccnn1CCC(=O)N1CCCC[C@]2(C)NC(=O)CCC[C@H]12 | % | -0.822 |
| CCN(CC)CCN1CCO[C@H]2[C@@H](OCc3ccccn3)CC[C@@H]21 | % | -7.66 |
| Cc1ccc(F)c2c1CCCN2CC(=O)NC1CCS(=O)(=O)C1 (stereo not drawn) | % | -11.9 |
| CC(C)(C)C(=O)N1CCCC1c1cc(CO)[nH]n1 (stereo not drawn) | % | 1.61 |
| CC(C)(C)NC(=O)CNc1ccc(Br)cn1 | % | -2.81 |
| O=C(Nc1nncs1)N(Cc1cccc(F)c1)C1CC1 | % | 47.6 |
| COc1ccc(CNC(=O)NCc2ccc(C)cc2)cn1 | % | -5.63 |
| CN(Cc1ccccc1)CC(O)Cn1cnc2ccsc2c1=O (stereo not drawn) | % | -2.89 |
| COC(=O)c1ccc(CNC(=O)Cc2csc(C(C)=O)c2)cc1 | % | 5.03 |
| O=C(NCCc1nnc2n1CCC2)c1ccccc1OC1CCCC1 | % | -2.27 |
| CCOc1ncccc1CNC(=O)NCC(O)c1ccccc1OC (stereo not drawn) | % | -6.85 |
| O=C(c1cc2c(s1)CCC2)N1CCCC(c2cnccn2)C1 (stereo not drawn) | % | -1.67 |
| CCC(CC)C(=O)NCCc1ccn(-c2ccccc2)n1 | % | -8.8 |
| CCN1C[C@H]2[C@@H](C1)N(C(=O)Cc1ccsc1)CC[C@H]2OC | % | 6.8 |
| CCC(C(=O)Nc1ccc2nc(C)oc2c1)N1CCCC1=O (stereo not drawn) | % | -41.9 |
| CC(C)C[C@H](NC(=O)Cc1csc(-c2cccc(Cl)c2)n1)C(=O)O | % | 3.51 |
| CSc1ccc(S(=O)(=O)NC2CNC(=O)C2)cc1 (stereo not drawn) | % | -2.46 |
| Fc1cnc(N2CCC3(CC2)CC(OCc2cccnc2)CO3)nc1 (stereo not drawn) | % | 2.25 |
| Cn1ccnc1CN1C[C@@H](CN2CCCCC2)[C@@H](CO)C1 | % | 11.7 |
| O=C1C[C@@H]2CC[C@H](CN1)N2C(=O)CCc1ccc2c(c1)OCO2 | % | -5 |
| COc1ccc(NC(C)c2nnnn2-c2ccccc2)cc1F (stereo not drawn) | % | 12.1 |
| Nc1nc2c(c3c1C(=O)NC3=O)CCC2 | % | -4.21 |
| Cc1cccc(C)c1NC(=O)CCNC(=O)c1ccoc1 | % | 3.03 |
| COCCC(=O)N1CCC(NC(=O)c2cscc2C)CC1 | % | -14.2 |
| CCCc1nnc(N2CCC3(CCC(=O)N(C)C3)CC2)o1 | % | 3.96 |
| Cc1cc(OCC(=O)N2CCCC(c3nccs3)C2)no1 (stereo not drawn) | % | 0.953 |
